# Method notes: Inhibition of amyloid beta (1 to 40) aggregation assessed as emission of thioflavin T fluorescence at 100 uM in presence of 1,1,1,3,3,3-hexaflouro-2-propanol
Measurement label: inhibition (%)

* COc1cc(C(=O)NCC(=O)NCC(=O)NCC(=O)NCc2cccc(CNC(=O)CNC(=O)CNC(=O)CNC(=O)c3cc(OC)c(OC)c(OC)c3)c2)cc(OC)c1OC | 15
* O=C(CNC(=O)c1cc([N+](=O)[O-])cc([N+](=O)[O-])c1)NCc1cccc(CNC(=O)CNC(=O)c2cc([N+](=O)[O-])cc([N+](=O)[O-])c2)c1 | 33
* COc1cc(C(=O)NCC(=O)NCC(=O)NCc2cccc(CNC(=O)CNC(=O)CNC(=O)c3cc(OC)c(OC)c(OC)c3)c2)cc(OC)c1OC | 31
* O=C(CNC(=O)c1cc([N+](=O)[O-])cc([N+](=O)[O-])c1)NCC(=O)Nc1ccc(Oc2cccc(NC(=O)CNC(=O)CNC(=O)c3cc([N+](=O)[O-])cc([N+](=O)[O-])c3)c2)cc1 | 30
* Nc1cccc(Oc2ccc(NC(=O)CNC(=O)CNC(=O)c3cc([N+](=O)[O-])cc([N+](=O)[O-])c3)cc2)c1 | 0
* O=C(CNC(=O)c1cc(O)c(O)c(O)c1)NCC(=O)Nc1ccc(Oc2cccc(NC(=O)CNC(=O)CNC(=O)c3cc(O)c(O)c(O)c3)c2)cc1 | 80
* O=C(CNC(=O)c1cc([N+](=O)[O-])cc([N+](=O)[O-])c1)Nc1ccc(Oc2cccc(NC(=O)CNC(=O)c3cc([N+](=O)[O-])cc([N+](=O)[O-])c3)c2)cc1 | 44
* COc1cc(C(=O)NCc2cccc(CNC(=O)c3cc(OC)c(OC)c(OC)c3)c2)cc(OC)c1OC | 19
* O=C(CNC(=O)c1ccccc1)NCC(=O)Nc1ccc(Oc2cccc(NC(=O)CNC(=O)CNC(=O)c3ccccc3)c2)cc1 | -3
* COc1cc(C(=O)NCCCCC(=O)Nc2ccc(Oc3cccc(NC(=O)CCCCNC(=O)c4cc(OC)c(OC)c(OC)c4)c3)cc2)cc(OC)c1OC | 0
* O=C(NCc1cccc(CNC(=O)c2cc([N+](=O)[O-])cc([N+](=O)[O-])c2)c1)c1cc([N+](=O)[O-])cc([N+](=O)[O-])c1 | 4
* O=C(CNC(=O)c1cc(O)c(O)c(O)c1)Nc1ccc(Oc2cccc(NC(=O)CNC(=O)c3cc(O)c(O)c(O)c3)c2)cc1 | 79
* O=C(NCc1cccc(CNC(=O)c2ccccc2)c1)c1ccccc1 | 3
* O=C(Nc1ccc(Oc2cccc(NC(=O)c3cc(O)c(O)c(O)c3)c2)cc1)c1cc(O)c(O)c(O)c1 | 70
* COc1cc(C(=O)NCC(=O)NCC(=O)NCC(=O)Nc2ccc(Oc3cccc(NC(=O)CNC(=O)CNC(=O)CNC(=O)c4cc(OC)c(OC)c(OC)c4)c3)cc2)cc(OC)c1OC | 20
* O=C(CNC(=O)CNC(=O)c1cc([N+](=O)[O-])cc([N+](=O)[O-])c1)NCCCNCCCNC(=O)CNC(=O)CNC(=O)c1cc([N+](=O)[O-])cc([N+](=O)[O-])c1 | 9
* O=C(NCc1cccc(CNC(=O)c2cc(O)c(O)c(O)c2)c1)c1cc(O)c(O)c(O)c1 | 61
* O=C(CNC(=O)CNC(=O)c1ccccc1)NCC(=O)NCc1cccc(CNC(=O)CNC(=O)CNC(=O)CNC(=O)c2ccccc2)c1 | 19
* O=C(CNC(=O)c1ccccc1)Nc1ccc(Oc2cccc(NC(=O)CNC(=O)c3ccccc3)c2)cc1 | 7
* O=C(CNC(=O)CNC(=O)c1cc([N+](=O)[O-])cc([N+](=O)[O-])c1)NCc1cccc(CNC(=O)CNC(=O)CNC(=O)c2cc([N+](=O)[O-])cc([N+](=O)[O-])c2)c1 | 23

====

# Method notes: Inhibition of amyloid beta (1 to 40) aggregation assessed as emission of thioflavin T fluorescence at 100 uM in presence of 1,1,1,3,3,3-hexaflouro-2-propanol
Measurement label: inhibition (%)

- O=C(CNC(=O)CNC(=O)c1cc(O)c(O)c(O)c1)NCC(=O)NCc1cccc(CNC(=O)CNC(=O)CNC(=O)CNC(=O)c2cc(O)c(O)c(O)c2)c1: 4
- COc1cc(C(=O)NCC(=O)NCC(=O)Nc2ccc(Oc3cccc(NC(=O)CNC(=O)CNC(=O)c4cc(OC)c(OC)c(OC)c4)c3)cc2)cc(OC)c1OC: 40
- O=C(CNC(=O)CNC(=O)c1ccccc1)NCC(=O)Nc1ccc(Oc2cccc(NC(=O)CNC(=O)CNC(=O)CNC(=O)c3ccccc3)c2)cc1: -3
- O=C(CNC(=O)CNC(=O)c1cc([N+](=O)[O-])cc([N+](=O)[O-])c1)NCC(=O)NCc1cccc(CNC(=O)CNC(=O)CNC(=O)CNC(=O)c2cc([N+](=O)[O-])cc([N+](=O)[O-])c2)c1: 13
- O=C(CNC(=O)CNC(=O)c1cc([N+](=O)[O-])cc([N+](=O)[O-])c1)NCC(=O)Nc1ccc(Oc2cccc(NC(=O)CNC(=O)CNC(=O)CNC(=O)c3cc([N+](=O)[O-])cc([N+](=O)[O-])c3)c2)cc1: 4
- O=C(CNC(=O)C1CCCCC1)NCC(=O)Nc1ccc(Oc2cccc(NC(=O)CNC(=O)CNC(=O)C3CCCCC3)c2)cc1: 17
- O=C(O)CNC(=O)CNC(=O)CNC(=O)c1cc([N+](=O)[O-])cc([N+](=O)[O-])c1: 36
- O=C(CNC(=O)CNC(=O)c1cc(O)c(O)c(O)c1)NCc1cccc(CNC(=O)CNC(=O)CNC(=O)c2cc(O)c(O)c(O)c2)c1: 5
- O=C(CNC(=O)CNC(=O)c1ccccc1)NCc1cccc(CNC(=O)CNC(=O)CNC(=O)c2ccccc2)c1: 10
- O=C(CNC(=O)c1ccccc1)NCc1cccc(CNC(=O)CNC(=O)c2ccccc2)c1: 9
- COc1cc(C(=O)NCC(=O)NCc2cccc(CNC(=O)CNC(=O)c3cc(OC)c(OC)c(OC)c3)c2)cc(OC)c1OC: 28
- COc1cc(C(=O)NCC(=O)NCC(=O)NCC(=O)O)cc(OC)c1OC: 11
- O=C(CNC(=O)c1cc(O)c(O)c(O)c1)NCc1cccc(CNC(=O)CNC(=O)c2cc(O)c(O)c(O)c2)c1: 39
- COc1cc(C(=O)NCC(=O)Nc2ccc(Oc3cccc(NC(=O)CNC(=O)c4cc(OC)c(OC)c(OC)c4)c3)cc2)cc(OC)c1OC: 9
